Measured values drawn from the supplement of paper PMC3334620 for this set.

# target or test system: Yap3 (UniProt P38749)
# Sequence: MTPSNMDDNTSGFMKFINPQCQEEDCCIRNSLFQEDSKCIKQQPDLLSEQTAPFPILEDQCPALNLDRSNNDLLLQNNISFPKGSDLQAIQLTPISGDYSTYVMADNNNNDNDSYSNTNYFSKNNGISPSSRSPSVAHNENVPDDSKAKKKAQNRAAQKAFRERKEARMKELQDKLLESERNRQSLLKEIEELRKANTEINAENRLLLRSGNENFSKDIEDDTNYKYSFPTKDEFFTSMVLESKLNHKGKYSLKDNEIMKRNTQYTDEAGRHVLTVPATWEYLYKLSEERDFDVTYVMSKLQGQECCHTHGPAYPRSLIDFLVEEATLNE
# protocol summary: PBM E-score (8-mer binding enrichment) (E-score (-0.5 to 0.5)); higher = stronger / more preferred TF binding
# stated conditions: protein concentration: 100 nM; construct: GST-full length
The full ranking holds about 33,000 sequences; the median of “E-score (-0.5 to 0.5)” is about -0.0034, and the highest 2% start at about 0.25. The sample as a whole holds a higher share of the highest values than the screen did.
readout name: PBM E-score
Give your answer as a number; write no unit.

Record excerpt, results attached:
ATACTAAA	0.188
GACTCGTA	-0.126
CATATGAA	0.132
AATGTATG	0.0768
ATGGGAGG	-0.0823

query: // lookup PBM E-score for AAACTAAT
result: 0.272

query: // lookup PBM E-score for CGTCTGAA
result: -0.104

query: // lookup PBM E-score for GCACTAAA
result: 0.179

query: // lookup PBM E-score for TATTACGA
result: 0.326

query: // lookup PBM E-score for ACGCTGAA
result: -0.00885

###

# target or test system: Yap3 (UniProt P38749)
# Sequence: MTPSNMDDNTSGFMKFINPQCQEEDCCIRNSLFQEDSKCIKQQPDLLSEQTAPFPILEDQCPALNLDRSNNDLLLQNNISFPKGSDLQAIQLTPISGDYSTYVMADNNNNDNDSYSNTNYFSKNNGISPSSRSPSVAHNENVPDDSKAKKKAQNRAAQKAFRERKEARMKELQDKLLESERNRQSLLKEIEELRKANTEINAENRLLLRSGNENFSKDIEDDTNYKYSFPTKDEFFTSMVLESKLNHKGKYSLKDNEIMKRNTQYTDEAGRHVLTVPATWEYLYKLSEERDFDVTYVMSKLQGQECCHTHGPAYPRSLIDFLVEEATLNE
# protocol summary: PBM E-score (8-mer binding enrichment) (E-score (-0.5 to 0.5)); higher = stronger / more preferred TF binding
# stated conditions: protein concentration: 100 nM; construct: GST-full length
Over roughly 33,000 sequences, “E-score (-0.5 to 0.5)” has its median near -0.0034; the highest 2% begin near 0.25. The sample as a whole holds a higher share of the highest values than the screen did.
Labels assigned by PBM E-score range: L = under 0.04, M = from 0.04 up to 0.1, H = 0.1 and over

Study these solved cases before continuing.
ACAATTCC	M
CGGATTGC	M
AGGGGCAA	M
GTTACCAA	H
GTATTAAA	H

query: Class for CAAAAACG ?
result: H

query: Class for AATCGACC ?
result: L

query: Class for GGTCAGTA ?
result: L

query: Class for TAGTATGA ?
result: H

query: Class for CTGTTTCA ?
result: M
